System: KM-20L2
Assay Details: NCI tumour cell line growth inhibition, 48 h
The source made the active and inactive calls. No stated cut-off is given here; in the data, active = GI50 up to about 1.1 µM and inactive = higher.
Metric Name: GI50

Form field - read-out: GI50; system: KM-20L2; submitted item: O=[N+]([O-])C1C2C=CC(C2)[C@H]1c1ccccc1Cl (stereo partly specified)
> 100 µM (inactive)

Form field - read-out: GI50; system: KM-20L2; submitted item: Cc1c2cnccc2c(C)c2c1c1ccccc1n2CCOC(=O)c1ccccc1
6.44 µM (inactive)

Form field - read-out: GI50; system: KM-20L2; submitted item: COC1OC(CBr)C(OC(=O)c2ccccc2)C(O)C1Br (stereo unspecified)
> 100 µM (inactive)

Form field - read-out: GI50; system: KM-20L2; submitted item: Nc1ccc2ncc(Nc3ccc(Cl)c(Cl)c3)nc2c1
31.8 µM (inactive)

Form field - read-out: GI50; system: KM-20L2; submitted item: COC(=O)C1=CC2OC13CC1CCC3(C2=O)C1(C)C (stereo unspecified)
13.3 µM (inactive)

Form field - read-out: GI50; system: KM-20L2; submitted item: Cc1cc(Cl)cc2c1NC(=O)C2(O)C(C(=O)c1ccccc1)c1ccccc1 (stereo unspecified)
88.9 µM (inactive)

Origin of values: ChEMBL document CHEMBL1201862
